assay: Plasma protein binding by equilibrium dialysis; type: in vitro ADME; conditions: human, 37° C.
Measured Metric: fraction unbound

Problem: Reported fraction unbound, compound `COc1ccc(-c2cc(Nc3ccnc(N4CCOCC4)n3)on2)cc1` : ____
Result: 0.0113
